Assay: NCI Yeast Anticancer Drug Screen. Data for the mec2-1 strain (AID 157)
Conditions: S. cerevisiae mec2-1 strain, at 50.0 µM, hits give high values
This is part of a sample that, as a whole, favours compounds with a hit. Of some 79,000 tested, about 15% had one in any assay.
Examples of molecules with documented growth inhibition follow.
Respond numerically; units are % and should not be typed.

Record excerpt, results attached:
INSERT INTO measurements (molecule, metric, result) VALUES
  ('O=C(Nc1ccc(Cl)cc1)OCC#CCOC(=O)Nc1ccc(Cl)cc1', 'growth inhibition', -2.75),
  ('O=C1OC2C3c4ccccc4C(c4c3ccc3ccccc43)C2O1 (stereo unspecified)', 'growth inhibition', 10.9),
  ('COc1c(Cl)cc(NC(=S)C#N)cc1Cl', 'growth inhibition', 20),
  ('CCCCCCCN1C(=O)C(O)(c2ccc(C3(O)C(=O)N(CCCCCCC)c4ccccc43)s2)c2ccccc21 (stereo unspecified)', 'growth inhibition', 10.9),
  ('C=C(CC/C=C\CO)[Si](C)(C)C', 'growth inhibition', -20.1);

Shift focus to the following entry.
IN: Quick check: growth inhibition of COC1OC2COC1(OCc1ccccc1)C1OC(C)(C)OC21 (stereo unspecified) ?
OUT: -5.85

====

Examples of compounds with documented growth inhibition follow.
Experiment: NCI Yeast Anticancer Drug Screen. Data for the bub3 strain (AID 167)
Conditions: S. cerevisiae bub3 mutant strain, at 50.0 µM, hits give high values
This is part of a sample that, as a whole, favours compounds with a hit. Of some 79,000 tested, about 15% had one in any assay. Active and inactive are the calls of the source. Rule as the data show it: active = growth inhibition above about 70%; inactive = the rest.

Record excerpt, results attached:
INSERT INTO assay_data (compound, result) VALUES
  ('NC(CCC(=O)OCCn1c2ccccc2c2ccccc21)C(=O)O (configuration not stated)', '18.1% (inactive)'),
  ('COc1cc(C2OC[C@@H]3C(=O)OC[C@H]23)cc(O)c1OC (some centres not stated)', '-38.8% (inactive)'),
  ('CCOC(=O)NC1CCc2ccccc2C1 (configuration not stated)', '-3% (inactive)'),
  ('Cc1n[nH]c(=S)n1N', '-14.5% (inactive)'),
  ('O=C(O)c1ccc(O)cn1', '3.3% (inactive)');

IN: Quick check: growth inhibition of CC(C)(C)c1ccc(Sc2cccc3c2C(=O)c2c(Cl)cccc2C3=O)cc1 ?
OUT: 0.55% (inactive)

IN: Note, next up: C(CN1CCC2CCC(C2)C1)=C(c1ccccc1)c1ccccc1 (configuration not stated)
OUT: 26.1% (inactive)

====

Examples of compounds with documented growth inhibition follow.
Experiment: NCI Yeast Anticancer Drug Screen. Data for the mec2-1 strain (AID 157)
Settings: S. cerevisiae mec2-1 strain, at 50.0 µM, hits give high values
Compounds without any hit were thinned out: in the full panel of roughly 79,000, 15% have a hit. The source made the active and inactive calls. Cut-off read from the data, not from the text of the source: active = growth inhibition above about 70%; inactive = the rest.

INSERT INTO results (compound, result) VALUES
  ('C/C(=N\NS(=O)(=O)c1ccc([N+](=O)[O-])cc1)c1ccc[n+]([O-])n1', '-18.6% (inactive)'),
  ('Nc1on(C(=O)c2ccccc2)c(=O)c1Cc1ccccc1', '3.6% (inactive)'),
  ('Nc1nnc(/C=C/c2ccc(Cl)cc2)o1', '-8.15% (inactive)'),
  ('CN1C/C(=C/c2ccc(N(C)C)cc2)C(=O)/C(=C/c2ccc(N(C)C)cc2)C1', '-6.9% (inactive)'),
  ('OCC1C2C=CC(C3C=CC32)C1CO (centres undefined)', '-9.8% (inactive)');

IN: Quick check: growth inhibition of CC1=C(C(=O)Nc2ccccc2C)C(c2ccco2)C(C(=O)Nc2ccccc2C)=C(C)N1C ?
OUT: -6.6% (inactive)

IN: Note, next up: O=S1OCC#CCOS(=O)OCC#CCO1 (centres undefined)
OUT: -23.8% (inactive)

IN: Note, next up: Clc1ccc(SCCCCSc2ccc(Cl)cc2)cc1
OUT: -6.7% (inactive)

IN: Note, next up: CCc1ccc(O)cc1
OUT: -25.9% (inactive)

IN: Note, next up: CCOC(=O)/C=C/C(=O)NN
OUT: -6.35% (inactive)

IN: Note, next up: Cc1cn(C2CC3OP(=O)(OCc4ccccc4)OCC3O2)c(=O)[nH]c1=O (centres undefined)
OUT: 7.1% (inactive)

IN: Note, next up: O=S(=O)(O)c1ccc(OCCCCCCCCCCOc2ccc(S(=O)(=O)O)cc2)cc1
OUT: 9.15% (inactive)

IN: Note, next up: c1ccc2c(c1)NC(SSC1Nc3ccccc3S1)S2 (centres undefined)
OUT: -21.1% (inactive)

IN: Note, next up: COc1ccc(OC)c(NC(=O)Nc2cc(Cl)ccc2C)c1
OUT: 0.65% (inactive)

IN: Note, next up: C=C1CCCC2OC(OC)CCC12 (centres undefined)
OUT: -10.8% (inactive)

IN: Note, next up: CC(=O)NC(Cc1ccccc1)C(=O)Nc1ccccc1C (centres undefined)
OUT: -18.3% (inactive)

IN: Note, next up: N=C1CCCS1
OUT: -2.35% (inactive)

IN: Note, next up: CC1Cc2c(cc(N)nc2Br)NC1=O (centres undefined)
OUT: -6.05% (inactive)

Origin of values: PubChem BioAssay (NCI)
